Test Target: human mAChR M1 (Homo sapiens)
Sequence (P11229 1-460): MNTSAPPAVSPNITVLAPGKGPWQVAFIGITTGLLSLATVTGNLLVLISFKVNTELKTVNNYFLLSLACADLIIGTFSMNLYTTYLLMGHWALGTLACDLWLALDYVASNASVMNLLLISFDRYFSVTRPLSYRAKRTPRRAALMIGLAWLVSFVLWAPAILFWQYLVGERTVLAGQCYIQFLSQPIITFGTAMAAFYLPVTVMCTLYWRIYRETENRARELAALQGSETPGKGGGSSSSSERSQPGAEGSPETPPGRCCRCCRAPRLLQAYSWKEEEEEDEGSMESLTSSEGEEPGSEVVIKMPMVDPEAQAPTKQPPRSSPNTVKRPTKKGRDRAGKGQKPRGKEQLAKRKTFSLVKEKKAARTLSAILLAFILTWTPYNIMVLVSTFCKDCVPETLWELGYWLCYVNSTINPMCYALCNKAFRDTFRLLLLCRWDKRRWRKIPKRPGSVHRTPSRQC
Test: mAChR M1 cell-based functional assay (calcium mobilization), agonist activity upon compound addition alone
Assay Context: CHO-K1 cells expressing hM1; compound alone; relative to the maximum for acetylcholine
For each of the molecules below, state its Emax.

input: Give its Emax value. Item: Cc1nc(-c2ccc(Cc3cc(C(=O)NC4CCOCC4)nc(-n4cccn4)c3C)cc2)co1 [Compound 51]
output: < 5%

input: Fill blank: measured Emax of the molecule Cc1c(Cc2ccc(-c3ccn(C)n3)nc2)cc(C(=O)NC2CCOCC2)nc1-n1cccn1 [Compound 49] is ____.
output: < 5%

input: Return reported Emax; argument: Cc1c(Cc2ccc(-c3ccn(C)n3)cc2)cc(C(=O)NC2CCOCC2)nc1-c1ccn(C)n1 [Compound 1]
output: < 5%

input: // Emax lookup, key: Cn1cc(-c2ccc(Cc3cc(C(=O)NC4CCOCC4)nc(-n4cccn4)c3)cn2)cn1 [Compound 26]
output: 5%

input: Which value of Emax has been reported for Cn1cc(-c2ccc(Cc3cc(C(=O)N[C@H]4CCOC[C@@H]4O)nc(-n4cccn4)c3)cn2)cn1 [Compound 18] in the records?
output: 13%

input: What value of measured Emax is listed for Cc1c(Cc2ccc(-n3cccn3)cc2)cc(C(=O)N[C@H]2CCCC[C@@H]2O)nc1-c1ccn(C)n1 [Compound 56] ?
output: < 5%

input: Can you share its Emax? I mean this molecule: Cc1nc(-c2ccc(Cc3cc(C(=O)N[C@H]4CCOC[C@@H]4O)nc(-n4cccn4)c3C)cc2)co1 [Compound 45]
output: 8%

input: So what's the measured Emax for this one? Cc1ccc(Cc2cc(C(=O)N[C@H]3CCCC[C@@H]3O)nc(-c3ccn(C)n3)c2C)cn1 [Compound 66]
output: < 5%

input: // Emax lookup, key: Cc1ccc(Cc2cc(C(=O)N[C@H]3CCOC[C@@H]3O)nc(-c3ccn(C)n3)c2C)cn1 [Compound 65]
output: < 5%

input: Entry Cc1c(Cc2ccc(-n3cccn3)cc2)cc(C(=O)NC[C@H]2CCCO2)nc1-c1ccn(C)n1 [Compound 63] has what Emax?
output: < 5%

input: For the molecule Cn1cc(-c2ccc(Cc3cc(C(=O)NC4CC5(COC5)C4)nc(-c4ccn(C)n4)c3)cn2)cn1 [Compound 5] , what Emax is on record?
output: < 5%

input: Field request: Emax | item: Cc1c(Cc2ccc(-c3ccn(C)n3)cc2)cc(C(=O)N[C@H]2CCC[C@@H]2O)nc1-c1ccn(C)n1 [Compound 12]
output: 6%

input: Can you look up the measured Emax of Cc1c(Cc2ccc(-c3ccn(C)n3)cc2)cc(C(=O)N[C@H]2CCC[C@@H]2O)nc1-n1cccn1 [Compound 43] for me?
output: 14%

input: Fill blank: measured Emax of the molecule Cc1c(Cc2ccc(-c3cnn(C)c3)nc2)cc(C(=O)NC2CCOCC2)nc1-n1cccn1 [Compound 50] is ____.
output: < 5%

input: Value lookup for Emax; key = Cc1nc(-c2ccc(Cc3cc(C(=O)N[C@H]4CCOC[C@@H]4O)nc(-n4cccn4)c3)cc2)co1 [Compound 19]
output: < 5%
